FYI, the data here is from ChEMBL document CHEMBL1135260.

QUANTITY_KIND: pIC50
On this scale, pIC50 is minus log10 of a concentration expressed in M (mol/L).

Test item c1ccc(-c2nc3c([nH]2)-c2ccccc2CCC3)nc1 ; Neuropeptide Y receptor type 5 (Homo sapiens, UniProt Q15761); reported pIC50 was 6.96

Test item COc1ccc2c(c1)-c1nc(-c3ccccc3)[nH]c1CC2 ; Neuropeptide Y receptor type 5 (Homo sapiens, UniProt Q15761); reported pIC50 was 7.28

Test item Fc1ccc2c(c1)-c1nc(-c3cccnc3)[nH]c1CCC2 ; Neuropeptide Y receptor type 5 (Homo sapiens, UniProt Q15761); reported pIC50 was 8.19

Test item c1ccc(-c2nc3c([nH]2)CCOc2ccccc2-3)cc1 ; Neuropeptide Y receptor type 5 (Homo sapiens, UniProt Q15761); reported pIC50 was 5.21

Test item c1ccc2c(c1)CCCc1[nH]c(-c3c[nH]cn3)nc1-2 ; Neuropeptide Y receptor type 5 (Homo sapiens, UniProt Q15761); reported pIC50 was 6.24
